# Tested on: c-Abl (mouse)
# assayText: phosphorylation enrichment, bacterial display (enrichment ratio); higher = better substrate or ligand; peptides without Tyr show the background;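 note: 11-residue human phosphosite peptides and single-mutation variants displayed on the E. coli surface, counted by deep sequencing, each peptide's frequency after selection divided by its frequency in the unselected input library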;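 note: frequency after pTyr selection over input frequency; kinase dosed for 20-30% of maximal phosphorylation in three min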
Could you label it criterion met if measured phosphorylation enrichment is 0.8 or higher, and criterion not met otherwise?

Example entries and their recorded answers appear below.
>  <sequenceRecord>
YTGDIYSSSNL [LZTR1_Y141_N143S]

>  <classification>
criterion met

$$$$
>  <sequenceRecord>
SVTCTYSPALD [TP53_Y126_N131D]

>  <classification>
criterion met

$$$$
>  <sequenceRecord>
EAVSIYQFHGQ [CBLC_Y402]

>  <classification>
criterion met

$$$$
>  <sequenceRecord>
GPGLVYRVANK [FLNB_Y1833_G1834R]

>  <classification>
criterion not met

$$$$
>  <sequenceRecord>
IGMLIYFARKA [VCAM1_Y718_I716L]

>  <classification>
criterion not met

$$$$
>  <sequenceRecord>
QNTGDDYDLYG [PTPN11_Y62_Y62D]

>  <classification>
criterion met

$$$$
>  <sequenceRecord>
DFKIIYIVPMR [SNRNP200_Y540_A542V]

>  <classification>
criterion met

$$$$
>  <sequenceRecord>
DLVLQYLRVPL [F9_Y371_A366D]

>  <classification>
criterion not met

$$$$
>  <sequenceRecord>
RGSQQYRALTV [TUBB8_Y281]

>  <classification>
criterion met

$$$$
>  <sequenceRecord>
LIHLHYIRKDY [BBS4_Y43]

>  <classification>
criterion not met

$$$$

Evaluate QDLRLYRPHLA [BTK_Y617_G613D] : phosphorylation enrichment at minimum 0.8?
criterion not met

Determine whether this sequence has phosphorylation enrichment no lower than 0.8: ITNLLYHVVGG [GBA_Y412_W417G]
criterion met

Has GMAHNYRNSSQ [AASS_Y188] a recorded phosphorylation enrichment greater than or equal to 0.8?
criterion not met

###

# measurementTarget: Fes (UniProt P07332)
# Sequence (P07332 whole entry, looked up): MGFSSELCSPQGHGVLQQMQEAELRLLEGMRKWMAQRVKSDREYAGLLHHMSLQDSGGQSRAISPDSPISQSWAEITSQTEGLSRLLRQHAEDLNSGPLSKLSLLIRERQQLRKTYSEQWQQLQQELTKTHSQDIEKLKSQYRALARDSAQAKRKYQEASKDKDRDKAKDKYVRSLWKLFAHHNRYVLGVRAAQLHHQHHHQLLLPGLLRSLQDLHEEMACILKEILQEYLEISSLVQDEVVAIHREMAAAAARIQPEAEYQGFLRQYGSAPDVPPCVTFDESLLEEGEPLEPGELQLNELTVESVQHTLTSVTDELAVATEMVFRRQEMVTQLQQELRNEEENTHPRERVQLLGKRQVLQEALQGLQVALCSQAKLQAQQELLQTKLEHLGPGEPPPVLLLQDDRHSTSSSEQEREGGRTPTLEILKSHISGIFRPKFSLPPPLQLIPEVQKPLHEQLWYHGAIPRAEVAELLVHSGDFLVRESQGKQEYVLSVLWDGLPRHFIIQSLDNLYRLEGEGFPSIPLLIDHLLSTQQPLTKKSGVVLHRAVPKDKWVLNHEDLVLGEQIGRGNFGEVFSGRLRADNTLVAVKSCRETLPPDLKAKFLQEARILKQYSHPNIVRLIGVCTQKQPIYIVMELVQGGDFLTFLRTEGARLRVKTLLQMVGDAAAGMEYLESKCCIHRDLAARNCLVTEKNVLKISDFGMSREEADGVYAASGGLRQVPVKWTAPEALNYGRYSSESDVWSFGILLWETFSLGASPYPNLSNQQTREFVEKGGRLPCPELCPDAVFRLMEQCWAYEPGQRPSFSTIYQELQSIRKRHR
# assayText: phosphorylation enrichment, bacterial display (enrichment ratio); higher = better substrate or ligand; peptides without Tyr show the background
endpointName: phosphorylation enrichment
Number, no unit, nothing else.

Here's what some known entries look like.
>  <sequenceRecord>
YKIYRYTLNDN [FN1_Y1975_L1974R]

>  <measurementTarget>
Fes (UniProt P07332)

>  <endpointName>
phosphorylation enrichment

>  <experimentalValue>
1.04

$$$$
>  <sequenceRecord>
CEHRGCLFLAI [TEK_Y897_Y897C_YF]

>  <measurementTarget>
Fes (UniProt P07332)

>  <endpointName>
phosphorylation enrichment

>  <experimentalValue>
1.13

$$$$
>  <sequenceRecord>
RQRTAYFSLNT [CDH1_Y68_D72N]

>  <measurementTarget>
Fes (UniProt P07332)

>  <endpointName>
phosphorylation enrichment

>  <experimentalValue>
1.1

$$$$

Fill in: phosphorylation enrichment of MDFRSYPREFG [RBM10_Y44_YF] is ___
0.858

###

# Tested on: AncSZ
# assayText: phosphorylation enrichment, bacterial display (enrichment ratio); higher = better substrate or ligand; peptides without Tyr show the background
So basically every entry gets a class from its phosphorylation enrichment, ranges being low group (below 0.8), middle group (0.8 to below 1), high group (1 or more)

Reference set (8 entries):
>  <sequenceRecord>
VKANTYENFWP [GATM_Y100_K102N_YF]

>  <measurementTarget>
AncSZ

>  <classification>
middle group

$$$$
>  <sequenceRecord>
LHQSTYQRYDV [SLC7A14_Y693]

>  <measurementTarget>
AncSZ

>  <classification>
low group

$$$$
>  <sequenceRecord>
HLPAGYIIPLQ [GAA_Y822_R819P]

>  <measurementTarget>
AncSZ

>  <classification>
low group

$$$$
>  <sequenceRecord>
IFHLSYHHNCE [PDE6B_Y227_L228H_YF]

>  <measurementTarget>
AncSZ

>  <classification>
high group

$$$$
>  <sequenceRecord>
IRNRDYDDIDD [TTYH2_Y424_T419I]

>  <measurementTarget>
AncSZ

>  <classification>
high group

$$$$
>  <sequenceRecord>
EDASEYFENYI [PARP4_Y214]

>  <measurementTarget>
AncSZ

>  <classification>
high group

$$$$
>  <sequenceRecord>
WKGSWYSMRKM [FGB_Y475]

>  <measurementTarget>
AncSZ

>  <classification>
high group

$$$$
>  <sequenceRecord>
VFSATYHPDHW [EFCAB12_Y544_P541S_YF]

>  <measurementTarget>
AncSZ

>  <classification>
low group

$$$$

Into which bin does this sequence go? DTKPAYQNLRQ [BOD1_Y82]
low group

Which class does KAPPTYDTVLQ [CYP3A4_Y347] fall in?
low group

Just checking, what class would you give LAIERYVVVSK [RHO_Y136_C140S] here?
middle group

For this sequence, which bin applies? TEQMAYCPIQC [SHC4_Y403]
high group

Kindly state the category for this sequence: QEVLEYFMKQM [PIK3CA_Y1038_A1035V]
high group

Please indicate the class for KRPAVYIDEEA [EPM2A_Y304] based on its phosphorylation enrichment.
high group

For EFQKKYSDADI [CKAP5_Y1860_K1857Q_YF] , which phosphorylation enrichment bin applies?
middle group

For RPPFTYATLIH [FOXP3_Y342_R347H] , which phosphorylation enrichment bin applies?
high group

# bin label for SAPPSHEETVA [LITAF_Y23_Y23H]
low group

Any idea which band PQAVRYIFTID [DCX_Y103_G100A_YF] is in?
high group

State the class of the sequence shown: KNCFKYYMSDD [ATRX_Y203]
high group

Sort VECQVYAEDPY [PCCA_Y401_R399Q] into one of the categories.
high group

# bin label for AGNPAYRSFSN [IL4R_Y497]
low group

Assign a bin to RMGNLYDIDEN [GRIN2A_Y1246_D1251N]
high group

Returns: class label. Input: SGFESYGSSSY [RPA2_Y9]
low group

Please classify: NTFEKYLGEEF [TF_Y669_YF]
high group

###

# measurementTarget: Hck (UniProt P08631)
# Sequence (P08631 whole entry, looked up): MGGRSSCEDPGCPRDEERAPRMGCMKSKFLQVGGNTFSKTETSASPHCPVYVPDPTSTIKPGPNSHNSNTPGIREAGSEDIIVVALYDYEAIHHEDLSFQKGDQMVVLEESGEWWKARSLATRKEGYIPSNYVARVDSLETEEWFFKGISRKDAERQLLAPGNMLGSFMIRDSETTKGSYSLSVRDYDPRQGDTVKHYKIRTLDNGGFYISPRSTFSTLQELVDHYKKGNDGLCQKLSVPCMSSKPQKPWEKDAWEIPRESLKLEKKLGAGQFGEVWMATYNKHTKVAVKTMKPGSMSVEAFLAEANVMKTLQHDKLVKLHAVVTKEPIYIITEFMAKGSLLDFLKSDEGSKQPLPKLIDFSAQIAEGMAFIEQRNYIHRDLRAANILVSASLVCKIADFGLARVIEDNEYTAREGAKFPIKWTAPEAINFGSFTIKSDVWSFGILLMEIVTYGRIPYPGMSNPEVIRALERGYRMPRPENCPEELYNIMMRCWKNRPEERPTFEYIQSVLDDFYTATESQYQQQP
# assayText: phosphorylation enrichment, bacterial display (enrichment ratio); higher = better substrate or ligand; peptides without Tyr show the background
endpointName: phosphorylation enrichment

// known answers, use as guide
>  <sequenceRecord>
NDDDVYLSLEE [VAV2_Y142_R143L]

>  <endpointName>
phosphorylation enrichment

>  <experimentalValue>
0.721

$$$$
>  <sequenceRecord>
NTGVYYDLYGG [PTPN11_Y63_D61V]

>  <endpointName>
phosphorylation enrichment

>  <experimentalValue>
6.5

$$$$
>  <sequenceRecord>
YNNYGYGNDGF [HNRNPH3_Y161]

>  <endpointName>
phosphorylation enrichment

>  <experimentalValue>
0.455

$$$$

Given the entry VMSGPYELKAL [IL1B_Y140] , what phosphorylation enrichment was observed with Hck (UniProt P08631)?
0.491

Tell me reported phosphorylation enrichment for ITVPAYFNDSQ [HSPA9_Y196] , tested with Hck (UniProt P08631).
0.528

Item YGIAQYCCRMG [LRRK2_Y2023] with Hck (UniProt P08631) - phosphorylation enrichment?
1.02

Form field - read-out: phosphorylation enrichment; system: Hck (UniProt P08631); submitted item: KFEDVYVRICL [B3GALNT1_Y269_G271R]
0.479

Item: KSAAIYNPVIY [RHO_Y301] Test system: Hck (UniProt P08631) Read-out: phosphorylation enrichment Value: ?
8.17

###

# measurementTarget: EPHB1 (UniProt P54762)
# Sequence (P54762 whole entry, looked up): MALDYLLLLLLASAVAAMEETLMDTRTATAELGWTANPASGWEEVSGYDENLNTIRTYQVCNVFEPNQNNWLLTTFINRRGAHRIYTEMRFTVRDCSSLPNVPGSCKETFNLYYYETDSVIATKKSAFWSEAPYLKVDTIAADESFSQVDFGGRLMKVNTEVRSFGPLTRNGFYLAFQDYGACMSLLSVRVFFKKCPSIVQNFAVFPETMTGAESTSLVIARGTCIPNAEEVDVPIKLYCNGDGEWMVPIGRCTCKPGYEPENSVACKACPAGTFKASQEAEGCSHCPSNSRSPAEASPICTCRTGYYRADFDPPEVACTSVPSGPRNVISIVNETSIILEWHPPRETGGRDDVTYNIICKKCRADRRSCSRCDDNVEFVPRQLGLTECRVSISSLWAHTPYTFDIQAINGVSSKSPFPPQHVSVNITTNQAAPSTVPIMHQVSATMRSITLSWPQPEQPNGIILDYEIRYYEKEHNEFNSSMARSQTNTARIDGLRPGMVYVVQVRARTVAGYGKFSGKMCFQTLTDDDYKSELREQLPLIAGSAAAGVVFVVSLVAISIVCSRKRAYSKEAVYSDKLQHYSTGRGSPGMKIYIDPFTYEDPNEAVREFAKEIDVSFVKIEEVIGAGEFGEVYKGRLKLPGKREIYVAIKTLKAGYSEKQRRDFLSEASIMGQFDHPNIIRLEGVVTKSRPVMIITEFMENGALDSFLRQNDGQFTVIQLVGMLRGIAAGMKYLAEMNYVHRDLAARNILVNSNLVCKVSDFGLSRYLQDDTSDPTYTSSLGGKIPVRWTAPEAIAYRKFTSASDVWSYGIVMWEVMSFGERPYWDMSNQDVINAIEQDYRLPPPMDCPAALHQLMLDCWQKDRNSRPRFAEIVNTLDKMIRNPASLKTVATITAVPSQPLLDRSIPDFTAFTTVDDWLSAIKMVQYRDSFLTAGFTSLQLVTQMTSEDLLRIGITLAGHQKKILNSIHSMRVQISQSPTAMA
# assayText: phosphorylation enrichment, bacterial display (enrichment ratio); higher = better substrate or ligand; peptides without Tyr show the background
Please map values of phosphorylation enrichment to classes as shown: group A = under 0.5, group B = from 0.5 up to 0.6, group C = 0.6 and over

The following sequences have reported results that may help.
>  <sequenceRecord>
VVVTKYCKEEL [ATP7B_Y1078_A1074V]

>  <measurementTarget>
EPHB1 (UniProt P54762)

>  <classification>
group C

$$$$
>  <sequenceRecord>
FPRAWCRRSIA [KIAA1109_Y4272_Y4272C]

>  <measurementTarget>
EPHB1 (UniProt P54762)

>  <classification>
group B

$$$$
>  <sequenceRecord>
FGMQLYQNFMH [GRB14_Y347_YF]

>  <measurementTarget>
EPHB1 (UniProt P54762)

>  <classification>
group C

$$$$
>  <sequenceRecord>
IFHLSYHHNCE [PDE6B_Y227_L228H_YF]

>  <measurementTarget>
EPHB1 (UniProt P54762)

>  <classification>
group B

$$$$
>  <sequenceRecord>
RKLVDYDSAQH [BIN1_Y150_R154Q]

>  <measurementTarget>
EPHB1 (UniProt P54762)

>  <classification>
group C

$$$$

Here is another sequence to look at.
Bin? ISIFYYAKGQP [MPZ_Y82_H81Y]
group B

Each recorded value in this set is attributed to the supplement of paper PMC10065799.
